Values from paper PMC2847151

TESTED TARGET: Abl SH3 (Homo sapiens, UniProt P00519)
Sequence (P00519 58-124): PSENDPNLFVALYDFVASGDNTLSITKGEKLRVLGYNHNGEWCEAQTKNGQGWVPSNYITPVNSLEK
METHOD DESCRIPTION: fluorescence titration
pKd: −log10 of the molar value.
OUTCOME MEASURE: pKd

INSERT INTO measurements (binder, result_value) VALUES
  ('Ac-QLPPGPPGAPKPPPAS-NH2 [MED25]', 5.63);
